# Test system: SR
# MEASUREMENT_PROTOCOL: NCI tumour cell line growth inhibition, 48 h
The source made the active and inactive calls. Cut-off read from the data, not from the text of the source: active = GI50 up to about 1.1 µM and inactive = higher.
RECORDED_ENDPOINT: GI50

Worked cases, GI50 given:
[
  {
    "COMPOUND": "NC1=NCC(c2ccccn2)C1c1ccc(F)cc1 (stereo not drawn)",
    "TARGET_DESC": "SR",
    "GI50": "> 100 µM (inactive)"
  },
  {
    "COMPOUND": "COc1cccc(CC2Cc3ccccc3CC(=O)N2)c1 (stereo not drawn)",
    "TARGET_DESC": "SR",
    "GI50": "> 100 µM (inactive)"
  }
]

Can you share its GI50? I mean this compound: `COc1cccc(/C=C/c2cnc3ccccc3n2)c1OC`
> 100 µM (inactive)

====

# System: HOP-62
# MEASUREMENT_PROTOCOL: NCI tumour cell line growth inhibition, 48 h
Calls of active or inactive are those of the source. Cut-off read from the data, not from the text of the source: active = GI50 up to about 1.1 µM and inactive = higher.
Your answer must be one of the following: active, inactive

[
  {
    "MOLECULE": "Cc1n(CC(=O)c2ccc([N+](=O)[O-])cc2)c2c([n+]1CC(C)C)C(=O)c1ccccc1C2=O",
    "CLASS_LABEL": "active"
  },
  {
    "MOLECULE": "CCCCCC/C(CC(=O)CCC(=O)NCCc1ccccc1)=N\\Nc1ccc([N+](=O)[O-])cc1[N+](=O)[O-]",
    "CLASS_LABEL": "inactive"
  },
  {
    "MOLECULE": "COc1cccc(C2C(C(=O)Nc3cc(=O)n(C)c(=O)n3C)=C(C)NC(C)=C2C(=O)Nc2cc(=O)n(C)c(=O)n2C)c1O",
    "CLASS_LABEL": "inactive"
  },
  {
    "MOLECULE": "O=C1/C(=C/C=C/c2ccccc2)N=C(c2ccccc2)N1c1ccc(S(=O)(=O)Nc2nccs2)cc1",
    "CLASS_LABEL": "inactive"
  },
  {
    "MOLECULE": "O=C1OC(C2Cc3cc4c(cc3C2=O)CCC4)c2ccccc21 (centres undefined)",
    "CLASS_LABEL": "inactive"
  },
  {
    "MOLECULE": "CCOC(=O)c1ccc(/N=C/C=C(\\Nc2ccc(C(=O)OCC)cc2)C23CC4CC(CC(C4)C2)C3)cc1",
    "CLASS_LABEL": "inactive"
  },
  {
    "MOLECULE": "C#C/C=C\\CCCCCCCCCCCCCC/C=C\\CCCCC#CC(O)C#CCCCC/C=C\\CCCCCC/C=C/C(O)C#C (centres undefined)",
    "CLASS_LABEL": "inactive"
  },
  {
    "MOLECULE": "O=C1c2cccc(O)c2C(=O)c2c(OC3OC(CO)C(O)C(O)C3O)cccc21 (centres undefined)",
    "CLASS_LABEL": "inactive"
  }
]

Kindly provide the recorded test outcome for the following molecule: `COC(=O)C1=C(CCCCO[Si](C)(C)C(C)(C)C)NC(=O)N2[C@@H](CCOCc3ccccc3)CC[C@H]12`
inactive

// same read-out, input: `NS(=O)(=O)c1nnc(NC(=O)c2ccccc2)s1`
inactive

====

# Tested on: SK-MEL-28
# MEASUREMENT_PROTOCOL: NCI tumour cell line growth inhibition, 48 h
Activity calls are given as the source filed them. No stated cut-off is given here; in the data, active = GI50 up to about 1.1 µM and inactive = higher.
RECORDED_ENDPOINT: GI50

Worked cases, GI50 given:
[
  {
    "MOLECULE": "CCOc1ccc(/N=N/c2ccc3oc(=O)c(/C(C)=N/NC(=O)CC(=O)Nc4cccc(OC)c4)cc3c2)cc1",
    "RECORDED_ENDPOINT": "GI50",
    "EXPERIMENTAL_RESULT": "20.8 µM (inactive)"
  },
  {
    "MOLECULE": "CN(C)c1ncc(-c2c[nH]c3ccccc23)nc1-c1c[nH]c2ccccc12",
    "RECORDED_ENDPOINT": "GI50",
    "EXPERIMENTAL_RESULT": "2.89 µM (inactive)"
  },
  {
    "MOLECULE": "COc1cccc(/C=C/c2cnc3ccccc3n2)c1OC",
    "RECORDED_ENDPOINT": "GI50",
    "EXPERIMENTAL_RESULT": "44.2 µM (inactive)"
  },
  {
    "MOLECULE": "CCOC(=O)C(NC(=O)CC(C)C)(NC(C)C)C(F)(F)F (stereo not given)",
    "RECORDED_ENDPOINT": "GI50",
    "EXPERIMENTAL_RESULT": "> 100 µM (inactive)"
  },
  {
    "MOLECULE": "COc1cccc(NC(=O)CC(=O)NN2C(=O)/C(=C/c3ccc(N(CCC#N)CCC#N)cc3)N=C2c2cc([N+](=O)[O-])ccc2Cl)c1",
    "RECORDED_ENDPOINT": "GI50",
    "EXPERIMENTAL_RESULT": "> 100 µM (inactive)"
  },
  {
    "MOLECULE": "S=c1[nH]n2c(CCCCCCCCc3nnc4sc(=S)[nH]n34)nnc2s1",
    "RECORDED_ENDPOINT": "GI50",
    "EXPERIMENTAL_RESULT": "> 100 µM (inactive)"
  },
  {
    "MOLECULE": "Cc1ccc(SSCCCCCS(=O)O)cc1",
    "RECORDED_ENDPOINT": "GI50",
    "EXPERIMENTAL_RESULT": "46.5 µM (inactive)"
  },
  {
    "MOLECULE": "Nc1nc2c(ncn2CCCC(c2ccccc2)P(=O)(O)O)c(=O)[nH]1 (stereo not given)",
    "RECORDED_ENDPOINT": "GI50",
    "EXPERIMENTAL_RESULT": "> 100 µM (inactive)"
  },
  {
    "MOLECULE": "COC(=O)c1ccc(OCCn2nnc(C(=O)NN)c2C(=O)NN)cc1",
    "RECORDED_ENDPOINT": "GI50",
    "EXPERIMENTAL_RESULT": "> 100 µM (inactive)"
  }
]

Now consider the entry below.
Can you share its GI50? I mean this molecule: `O=c1[nH]cnc2c1ncn2[C@@H]1C[C@@H]1CO`
> 100 µM (inactive)
